Assay: shake flask on a mixture of 185; loss from the water phase only; LC-Orbitrap peak areas
Details: room
// NB: equality with -0.4 log10 counts as false; only log partition cyclohexane / HPLC water, unbuffered, traces of methanol / DMSO strictly below is true

Answered cases to consult:
> print(dat)
                                   compound  class
1                  Cc1ccc(N)c(S(=O)(=O)O)c1  false
2  Nc1cc2c3c(c1)C(c1ccccc1)=N[C@@H](NC(=O)c1cccnc1)C(=O)N3CC2   true
3  CN/C(=N/[N+](=O)[O-])NCC1CCOC1 (stereo not drawn)   true
4                    CC(C)(C)c1ccc(O)c(O)c1   true
5                   CC(=O)Oc1ccc(C(C)=O)cc1   true

[Q] Is -0.4 log10 strictly greater than the compound's reported log partition cyclohexane / HPLC water, unbuffered, traces of methanol / DMSO? compound: Cc1ccc([N+](=O)[O-])cc1S(=O)(=O)O
[A] false

---

Assay: shake flask on a mixture of 185; loss from the water phase only; LC-Orbitrap peak areas
Settings: room
Observation Type: log partition n-hexane / HPLC water, unbuffered, traces of methanol / DMSO (log10)
Please respond with the number in log10 and leave the unit unwritten.

> print(dat)
                                   molecule  result.value
1         Cc1ccc([N+](=O)[O-])cc1S(=O)(=O)O        0.3087
2  C[C@H](CCC(=O)O)[C@H]1CC[C@H]2[C@@H]3CC[C@@H]4C[C@H](O)CC[C@]4(C)[C@H]3CC[C@]12C      -0.08609
3  Nc1cc2c3c(c1)C(c1ccccc1)=N[C@@H](NC(=O)c1cccnc1)C(=O)N3CC2       -0.5688
4                         Cc1cc(O)cc(C)c1Cl         0.611
5                   CCCCCCCCCCCCN1CCCCCC1=O       -0.8813
6                    CCOC(=O)CC(=O)c1ccccc1        -1.048

# ---- query molecule ----
[Q] Sample COC(=O)c1ccc(C(=O)OC)c(C(=O)OC)c1 — what was its log partition n-hexane / HPLC water, unbuffered, traces of methanol / DMSO?
[A] 0.9609

---

Experiment: shake flask on a mixture of 185; loss from the water phase only; LC-QTOF peak areas
Settings: room
Labelling field: enter true if recorded log partition butyl acetate / HPLC water, unbuffered, traces of methanol / DMSO is less than 0.8 log10. Enter false if it equals or exceeds that cut-off.

> print(dat)
                                   compound  class
1  CC(C)C1(C)N=C(c2nc3ccccc3cc2C(=O)O)NC1=O (stereo not shown)   true
2                c1ccc2[nH]c(-c3cscn3)nc2c1   true
3                         OCCN(CCO)c1ccccc1   true
4  CO/C=C(/C(=O)OC)c1ccccc1Oc1cc(Oc2ccccc2C#N)ncn1  false
5                        O=S(=O)(O)C(F)(F)F   true

[Q] # check: log partition butyl acetate / HPLC water, unbuffered, traces of methanol / DMSO < 0.8 log10 for CCCCOC(=O)C(C)Oc1ccc(Oc2ccc(C(F)(F)F)cn2)cc1 (stereo not shown)
[A] false
